Test system: breast cancer (MCF-7) cell line
Assay: In vitro anti-proliferative activity, MTT assay, MCF-7
Assay type: cell-based, human
Conditions: MTT, 48 h, mean ± SD, n = 3

- Molecule: "CC(=O)OCC(CSc1nc2c3cnn(C(=O)CNc4ccc(F)cc4)c3ncn2n1)OC(C)=O (stereo not shown) [Compound 11]"
  Test Target: "breast cancer (MCF-7) cell line"
  In vitro IC50 (nM) Mean ± SD MCF-7: "good activity"
- Molecule: "CC(=O)OCCSc1nc2c3cnn(C(=O)CNc4ccc(F)cc4)c3ncn2n1 [Compound 13]"
  Test Target: "breast cancer (MCF-7) cell line"
  In vitro IC50 (nM) Mean ± SD MCF-7: "good activity"
